- Target: PI3K γ (Homo sapiens, UniProt P48736)
- Sequence (P48736 whole entry): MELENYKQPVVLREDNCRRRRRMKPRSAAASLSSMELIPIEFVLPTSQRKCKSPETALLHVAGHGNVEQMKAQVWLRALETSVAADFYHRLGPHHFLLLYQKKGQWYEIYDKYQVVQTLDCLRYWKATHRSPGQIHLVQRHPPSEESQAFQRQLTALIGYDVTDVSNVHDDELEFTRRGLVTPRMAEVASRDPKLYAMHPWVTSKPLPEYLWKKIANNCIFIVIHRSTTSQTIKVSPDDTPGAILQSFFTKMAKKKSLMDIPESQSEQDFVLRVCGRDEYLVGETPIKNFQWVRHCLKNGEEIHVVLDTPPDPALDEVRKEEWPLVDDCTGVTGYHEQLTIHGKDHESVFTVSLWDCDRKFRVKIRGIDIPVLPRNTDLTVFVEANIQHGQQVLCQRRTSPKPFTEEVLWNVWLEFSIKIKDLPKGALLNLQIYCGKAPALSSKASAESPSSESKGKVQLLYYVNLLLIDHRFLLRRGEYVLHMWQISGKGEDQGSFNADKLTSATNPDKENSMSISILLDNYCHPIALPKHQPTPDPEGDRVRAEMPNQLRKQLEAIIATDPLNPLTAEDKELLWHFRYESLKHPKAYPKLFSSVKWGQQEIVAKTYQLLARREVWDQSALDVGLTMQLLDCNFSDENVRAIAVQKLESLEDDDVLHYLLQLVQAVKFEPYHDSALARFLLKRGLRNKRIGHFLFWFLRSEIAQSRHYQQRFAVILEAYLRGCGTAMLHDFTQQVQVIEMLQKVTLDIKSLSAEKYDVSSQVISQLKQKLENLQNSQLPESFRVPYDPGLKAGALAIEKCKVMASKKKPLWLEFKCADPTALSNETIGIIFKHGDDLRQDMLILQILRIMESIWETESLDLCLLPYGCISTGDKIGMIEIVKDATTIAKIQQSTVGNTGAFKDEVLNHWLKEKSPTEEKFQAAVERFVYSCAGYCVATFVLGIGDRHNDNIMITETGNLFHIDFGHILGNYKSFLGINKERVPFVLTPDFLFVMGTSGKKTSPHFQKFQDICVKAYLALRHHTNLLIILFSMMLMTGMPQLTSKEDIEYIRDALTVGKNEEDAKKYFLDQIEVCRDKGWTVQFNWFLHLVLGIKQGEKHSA
pIC50: −log10 of the molar value.
The following molecules are shown together with reported pIC50 values.

Answered examples (3):
INSERT INTO results (molecule, recorded_measurement) VALUES
  ('Cc1ccccc1-n1c(Cn2nc(Br)c3c(N)ncnc32)cc2cccc(C)c2c1=O [Compound 19]', '> 7.00'),
  ('Cc1cccc2cc(Cn3nc(C#CC4CC4)c4c(N)ncnc43)n(-c3ccccc3F)c(=O)c12 [Compound 4]', '< 5.00'),
  ('Cc1cccc2cc(Cn3nc(-c4cn[nH]c4)c4c(N)ncnc43)n(-c3ccccc3C(F)(F)F)c(=O)c12 [Compound 214]', '> 6.00');

Query Cc1cccc2cc(C(C)Nc3ncnc4[nH]cnc34)n(C3CCOCC3)c(=O)c12 (stereo not shown) [Compound 234] on PI3K γ (Homo sapiens, UniProt P48736); pIC50 returned: > 6.00

Query Cc1ccccc1-n1c(Cn2nc(CF)c3c(N)ncnc32)cc2cccc(C)c2c1=O [Compound 310] on PI3K γ (Homo sapiens, UniProt P48736); pIC50 returned: > 7.00

---

Notes on IC50 obtained with PI3K γ (Homo sapiens).

INSERT INTO assay_data (compound, readout_type, recorded_measurement) VALUES
  ('Cc1ccccc1-n1c(Cn2nc(CO)c3c(N)ncnc32)cc2cccc(C)c2c1=O [Compound 313]', 'IC50', '< 10000 nM');

Query Cc1cccc2cc(Cn3nc(-c4cc(O)cc(F)c4)c4c(N)ncnc43)n(-c3ccccc3C(C)C)c(=O)c12 [Compound 95] on PI3K γ (Homo sapiens); IC50 returned: < 100 nM

Query Cc1cccc2cc(Cn3nc(-c4ccc(F)c(O)c4)c4c(N)ncnc43)n(-c3ccccc3F)c(=O)c12 [Compound 9] on PI3K γ (Homo sapiens); IC50 returned: < 1000 nM

Query Cc1ccccc1-n1c(Cn2nc(-c3ccc4nc(N)[nH]c4c3)c3c(N)ncnc32)cc2cccc(C)c2c1=O [Compound 295] on PI3K γ (Homo sapiens); IC50 returned: < 100 nM

Query Cc1ccccc1-n1c(Cn2nc(I)c3c(N)ncnc32)cc2cccc(F)c2c1=O [Compound 42] on PI3K γ (Homo sapiens); IC50 returned: < 10000 nM

Query Cc1cccnc1-n1c(Cn2nc(C#C[C@@H](C)O)c3c(N)ncnc32)cc2cccc(C)c2c1=O [Compound 69] on PI3K γ (Homo sapiens); IC50 returned: > 10000 nM

Query Cc1cccc2cc([C@H](C)Nc3nc(F)nc4[nH]cnc34)n(C3CC3)c(=O)c12 [Compound 279] on PI3K γ (Homo sapiens); IC50 returned: < 1000 nM

Query COc1cccc(-c2nn(Cc3cc4cccc(C)c4c(=O)n3-c3ccccc3C)c3ncnc(N)c23)c1 [Compound 106] on PI3K γ (Homo sapiens); IC50 returned: < 1000 nM

---

- Protocol Notes: Pharmacokinetics, dog
- Type: in vivo, Beagle dogs
- Experimental Setup: beagle, in vivo, po, 5 mg/kg, 5 mg/kg (study with 0.5 mg/kg IV)
Readout Type: Tmax (h)
# value in h; strip the unit string

molecule "C[C@H](Nc1ncnc2[nH]cnc12)c1cc2cccc(Cl)c2c(=O)n1-c1ccccc1" , Tmax observed: 3

---

- Protocol Notes: Pharmacokinetics, dog
- Assay type: in vivo, Beagle dogs
- Experimental Setup: beagle, in vivo, read-out: half-life (converted)
Readout Type: half-life (min)
# value in min; strip the unit string

molecule C[C@H](Nc1ncnc2[nH]cnc12)c1cc2cccc(Cl)c2c(=O)n1-c1ccccc1 [Compound 292] , half-life observed: 120

---

Notes on IC50 obtained with PI3K β (Homo sapiens, UniProt P42338).
Sequence (P42338 whole entry): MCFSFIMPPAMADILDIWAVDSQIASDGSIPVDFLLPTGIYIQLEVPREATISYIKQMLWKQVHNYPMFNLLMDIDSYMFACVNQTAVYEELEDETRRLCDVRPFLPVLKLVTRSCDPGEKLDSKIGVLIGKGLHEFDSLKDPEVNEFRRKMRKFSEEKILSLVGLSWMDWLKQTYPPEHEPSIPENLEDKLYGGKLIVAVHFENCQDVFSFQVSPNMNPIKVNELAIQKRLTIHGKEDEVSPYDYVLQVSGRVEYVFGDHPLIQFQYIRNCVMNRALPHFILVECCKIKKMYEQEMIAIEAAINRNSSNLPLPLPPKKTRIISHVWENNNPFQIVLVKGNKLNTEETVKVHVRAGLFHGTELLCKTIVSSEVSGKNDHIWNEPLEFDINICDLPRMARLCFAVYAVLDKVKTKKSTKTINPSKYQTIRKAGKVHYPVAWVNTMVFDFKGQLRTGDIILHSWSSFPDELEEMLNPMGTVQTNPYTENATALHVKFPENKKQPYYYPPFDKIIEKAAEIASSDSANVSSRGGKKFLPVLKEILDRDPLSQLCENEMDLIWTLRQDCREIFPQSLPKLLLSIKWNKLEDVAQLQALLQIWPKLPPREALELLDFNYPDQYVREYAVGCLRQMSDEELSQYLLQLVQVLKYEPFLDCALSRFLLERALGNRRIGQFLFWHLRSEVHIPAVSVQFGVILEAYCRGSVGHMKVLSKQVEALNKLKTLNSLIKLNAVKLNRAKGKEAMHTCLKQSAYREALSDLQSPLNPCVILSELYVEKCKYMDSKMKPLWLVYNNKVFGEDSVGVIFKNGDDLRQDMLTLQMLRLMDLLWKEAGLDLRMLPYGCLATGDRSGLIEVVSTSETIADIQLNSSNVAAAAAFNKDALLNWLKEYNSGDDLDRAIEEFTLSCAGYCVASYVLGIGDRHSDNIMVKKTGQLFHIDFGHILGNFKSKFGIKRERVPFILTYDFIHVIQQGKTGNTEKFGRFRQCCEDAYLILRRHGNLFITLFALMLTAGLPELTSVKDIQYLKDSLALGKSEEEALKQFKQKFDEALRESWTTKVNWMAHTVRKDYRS

Answered examples (4):
INSERT INTO measurements (compound, target, recorded_measurement) VALUES
  ('Cc1cccc2cc(C(C)Nc3nc(N)nc4[nH]cnc34)n(-c3ccccc3)c(=O)c12 (centres unmarked)', 'PI3K β (Homo sapiens, UniProt P42338)', '< 0.1 µM'),
  ('COc1ccc(-c2nn(Cc3cc4cccc(C)c4c(=O)n3-c3ccccc3C)c3ncnc(N)c23)cc1OC', 'PI3K β (Homo sapiens, UniProt P42338)', '> 10 µM'),
  ('Cc1cccc2cc(Cn3nc(-c4cc(O)cc(F)c4)c4c(N)ncnc43)n(-c3ccccc3F)c(=O)c12', 'PI3K β (Homo sapiens, UniProt P42338)', '< 10 µM'),
  ('Cc1ccccc1-n1c(Cn2nc(-c3ccn[nH]3)c3c(N)ncnc32)cc2cccc(C)c2c1=O', 'PI3K β (Homo sapiens, UniProt P42338)', '> 10 µM');

Query "Cc1cccc2cc([C@H](C)Nc3cc(N)nc(Cl)n3)n(C3CC3)c(=O)c12" on PI3K β (Homo sapiens, UniProt P42338); IC50 returned: > 10 µM

Query "Cc1cccc2cc(Cn3nc(-c4cn[nH]c4)c4c(N)ncnc43)n(-c3cccc(F)c3)c(=O)c12" on PI3K β (Homo sapiens, UniProt P42338); IC50 returned: > 10 µM

Query Cc1ccccc1-n1c(C(C)Nc2ncnc3[nH]cnc23)cc2cccc(C)c2c1=O (centres unmarked) on PI3K β (Homo sapiens, UniProt P42338); IC50 returned: < 10 µM

Query "Cc1cccc2cc([C@H](C)Nc3nc(N)ncc3C(N)=O)n(C3CC3)c(=O)c12" on PI3K β (Homo sapiens, UniProt P42338); IC50 returned: > 10 µM

---

- Protocol Notes: Pharmacokinetics, dog
- Assay type: in vivo, Beagle dogs
- Experimental Setup: beagle, in vivo, IV, 1 mg/kg
Readout Type: clearance (mL/min/kg)
# value in mL/min/kg; strip the unit string

molecule "C[C@H](Nc1ncnc2[nH]cnc12)c1cc2cccc(Cl)c2c(=O)n1-c1ccccc1" , clearance observed: 3.23

---

- Protocol Notes: 13-week repeat-dose safety study, rat
- Experimental Setup: both, rat, in vivo, po
Readout Type: NOAEL at 13 weeks (mg/kg/day)
# value in mg/kg/day; strip the unit string

molecule "C[C@H](Nc1ncnc2[nH]cnc12)c1cc2cccc(Cl)c2c(=O)n1-c1ccccc1" , NOAEL at 13 weeks observed: 25

---

- Target: PI3K β (Homo sapiens)
- Protocol Notes: In vitro IC50, PI3K β
- Assay type: biochemical
pIC50: −log10 of the molar value.
The following compounds are shown together with reported pIC50 values.

INSERT INTO measurements (item_smiles, readout_type, recorded_measurement) VALUES
  ('Cc1cccc2cc(Cn3nc(C#C[C@@H](C)O)c4c(N)ncnc43)n(-c3ccccc3C(C)C)c(=O)c12', 'pIC50', '> 5.00');

compound "Cc1cccc2cc(Cn3nc(I)c4c(N)ncnc43)n(-c3ccccc3Cl)c(=O)c12" , pIC50 observed: < 5.00

compound "Cc1ccccc1-n1c(Cn2nc(-c3ccc4nc(N)ccc4c3)c3c(N)ncnc32)cc2cccc(C)c2c1=O" , pIC50 observed: > 5.00

compound "Cc1cccc2cc(Cn3nc(-c4cn[nH]c4)c4c(N)ncnc43)n(-c3ccccc3)c(=O)c12" , pIC50 observed: > 5.00

---

- Protocol Notes: Clinical study in healthy adult subjects, pharmacokinetics
- Assay type: in vivo, human
- Experimental Setup: human, plasma, oral, 2 mg, 2 mg Q12 h, Day 1; mean (% CV); read-out: Cmax
Readout Type: Cmax (ng/mL)
# value in ng/mL; strip the unit string

molecule "C[C@H](Nc1ncnc2[nH]cnc12)c1cc2cccc(Cl)c2c(=O)n1-c1ccccc1" , Cmax observed: 101

---

- Protocol Notes: Clinical study in healthy adult subjects, pharmacokinetics
- Type: in vivo, human
- Experimental Setup: human, plasma, oral, 2 mg, 2 mg Q12 h, Day 1; mean (% CV)
Readout Type: half-life (h)
# value in h; strip the unit string

molecule "C[C@H](Nc1ncnc2[nH]cnc12)c1cc2cccc(Cl)c2c(=O)n1-c1ccccc1" , half-life observed: 6.34

---

- Protocol Notes: Pharmacokinetics, mouse
- Assay type: in vivo, BALB/c mice
- Experimental Setup: BALB/c, in vivo, IV, 10 mg/kg
Readout Type: clearance (L/h/kg)
# value in L/h/kg; strip the unit string

molecule "C[C@H](Nc1ncnc2[nH]cnc12)c1cc2cccc(Cl)c2c(=O)n1-c1ccccc1" , clearance observed: 5.25

---

- Protocol Notes: Pharmacokinetics, mouse
- Assay type: in vivo, BALB/c mice
- Experimental Setup: BALB/c, in vivo, IV, 10 mg/kg, read-out: T1/2 (converted)
Readout Type: half-life (min)
# value in min; strip the unit string

compound C[C@H](Nc1ncnc2[nH]cnc12)c1cc2cccc(Cl)c2c(=O)n1-c1ccccc1 [Compound 292] , half-life observed: 13.2

---

Notes on IC50 obtained with PI3K γ (Homo sapiens, UniProt P48736).

INSERT INTO measurements (compound, readout_type, recorded_measurement) VALUES
  ('Cc1cccc2cc([C@H](C)Nc3ncnc4[nH]cc(Br)c34)n(-c3ccccc3)c(=O)c12 [Compound 257]', 'IC50', '< 100 nM'),
  ('Cc1ccccc1-n1c(Cn2nc(-c3ccc(Cl)c(O)c3)c3c(N)ncnc32)cc2cccc(C)c2c1=O [Compound 23]', 'IC50', '< 100 nM'),
  ('C=Cc1nn(Cc2cc3cccc(C)c3c(=O)n2-c2ccccc2)c2ncnc(N)c12 [Compound 301]', 'IC50', '< 1000 nM'),
  ('Cc1ccccc1-n1c(Cn2nc(-c3ccc(F)c(O)c3)c3c(N)ncnc32)cc2cccc(F)c2c1=O [Compound 56]', 'IC50', '< 100 nM'),
  ('Cc1cccc2cc(Cn3nc(I)c4c(N)ncnc43)n(-c3ccccc3O)c(=O)c12 [Compound 79]', 'IC50', '< 100 nM'),
  ('CCc1ccccc1-n1c(Cn2nc(C#C[C@@H](C)O)c3c(N)ncnc32)cc2cccc(C)c2c1=O [Compound 99]', 'IC50', '< 1000 nM'),
  ('C[C@H](Nc1ncnc2[nH]cnc12)c1cc2cccc(Cl)c2c(=O)n1C1CC1 [Compound 270]', 'IC50', '< 100 nM');

Here is the next item to consider.
Query Cc1cccc2cc([C@H](C)Nc3ncnc4[nH]cc(Cl)c34)n(-c3ccccc3)c(=O)c12 [Compound 262] on PI3K γ (Homo sapiens, UniProt P48736); IC50 returned: < 100 nM
